The measurements presented in this section are drawn from ChEMBL document CHEMBL1821653.

System: SF-539
assayDetails: Antiproliferative activity against human SF539 cells by SRB assay
Type: functional
attributeMeasured: log10 of GI50 (log10 of the value in µM)

compound | log10 of GI50
O=C(CO)Cn1c2c(c3ccccc3c1=O)C(=O)c1ccccc1-2 | 1.30
COc1cc2c3c(n(CCCNCCO)c(=O)c2cc1OC)-c1cc2c(cc1C3=O)OCO2 | -1.40
O=C1c2ccccc2-c2c1c1ccccc1c(=O)n2C[C@H](O)CO | 0.87
COc1cc2c3c(n(C[C@H](O)CO)c(=O)c2cc1OC)-c1ccccc1C3=O | -0.67
O=C1c2ccccc2-c2c1c1ccc([N+](=O)[O-])cc1c(=O)n2C[C@H](O)CO | -0.80
O=C1c2ccccc2-c2c1c1ccccc1c(=O)n2C[C@H](O)[C@H](O)[C@H](O)CO | 0.33
O=C1c2ccccc2-c2c1c1ccccc1c(=O)n2C[C@@H](O)[C@@H](O)[C@H](O)CO | 1.05
O=C1c2ccccc2-c2c1c1ccccc1c(=O)n2CC(O)CO (racemic) | 0.77
CC(O)Cn1c2c(c3ccccc3c1=O)C(=O)c1ccccc1-2 (racemic) | 0.83

###

Tested on: SN12C
assayDetails: Antiproliferative activity against human SN12C cells by SRB assay
Assay type: functional
Okay, here is how we bin by GI50: low group: < 3 µM; middle group: ≥ 3 µM and < 9 µM; high group: ≥ 9 µM

compound | answerLabel
O=C1c2ccccc2-c2c1c1ccccc1c(=O)n2C[C@@H](O)[C@H](O)[C@H](O)CO | high group
O=C(CO)Cn1c2c(c3ccccc3c1=O)C(=O)c1ccccc1-2 | high group
O=C1c2ccccc2-c2c1c1ccc([N+](=O)[O-])cc1c(=O)n2C[C@H](O)CO | low group
CC(CO)n1c2c(c3ccccc3c1=O)C(=O)c1ccccc1-2 (racemic) | high group
COc1cc2c3c(n(C)c(=O)c2cc1OC)-c1cc2c(cc1C3=O)OCO2 | high group
C[C@@H](O)Cn1c2c(c3ccccc3c1=O)C(=O)c1ccccc1-2 | high group
O=C1c2ccccc2-c2c1c1ccccc1c(=O)n2C[C@@H](O)[C@@H](O)[C@H](O)CO | middle group
COc1cc2c3c(n(C[C@H](O)CO)c(=O)c2cc1OC)-c1ccccc1C3=O | low group
O=C1c2ccccc2-c2c1c1ccccc1c(=O)n2C[C@@H](O)CO | middle group
CC(O)Cn1c2c(c3ccccc3c1=O)C(=O)c1ccccc1-2 (racemic) | middle group
NCC(O)Cn1c2c(c3ccccc3c1=O)C(=O)c1ccccc1-2 (racemic) | low group
O=C1c2ccccc2-c2c1c1ccccc1c(=O)n2C[C@H](O)CO | middle group
O=C1c2ccccc2-c2c1c1ccccc1c(=O)n2C[C@H](O)[C@H](O)[C@H](O)CO | low group
O=C1c2ccccc2-c2c1c1ccc([N+](=O)[O-])cc1c(=O)n2C[C@H](O)[C@@H](O)[C@H](O)[C@H](O)CO | high group
O=C1c2ccccc2-c2c1c1ccccc1c(=O)n2C[C@H](O)[C@@H](O)[C@H](O)CO | low group
O=C1c2ccccc2-c2c1c1ccccc1c(=O)n2C[C@H](O)[C@H](O)[C@H](O)[C@H](O)CO | middle group

###

targetDesc: UniProtKB P11387
Sequence (P11387 whole entry): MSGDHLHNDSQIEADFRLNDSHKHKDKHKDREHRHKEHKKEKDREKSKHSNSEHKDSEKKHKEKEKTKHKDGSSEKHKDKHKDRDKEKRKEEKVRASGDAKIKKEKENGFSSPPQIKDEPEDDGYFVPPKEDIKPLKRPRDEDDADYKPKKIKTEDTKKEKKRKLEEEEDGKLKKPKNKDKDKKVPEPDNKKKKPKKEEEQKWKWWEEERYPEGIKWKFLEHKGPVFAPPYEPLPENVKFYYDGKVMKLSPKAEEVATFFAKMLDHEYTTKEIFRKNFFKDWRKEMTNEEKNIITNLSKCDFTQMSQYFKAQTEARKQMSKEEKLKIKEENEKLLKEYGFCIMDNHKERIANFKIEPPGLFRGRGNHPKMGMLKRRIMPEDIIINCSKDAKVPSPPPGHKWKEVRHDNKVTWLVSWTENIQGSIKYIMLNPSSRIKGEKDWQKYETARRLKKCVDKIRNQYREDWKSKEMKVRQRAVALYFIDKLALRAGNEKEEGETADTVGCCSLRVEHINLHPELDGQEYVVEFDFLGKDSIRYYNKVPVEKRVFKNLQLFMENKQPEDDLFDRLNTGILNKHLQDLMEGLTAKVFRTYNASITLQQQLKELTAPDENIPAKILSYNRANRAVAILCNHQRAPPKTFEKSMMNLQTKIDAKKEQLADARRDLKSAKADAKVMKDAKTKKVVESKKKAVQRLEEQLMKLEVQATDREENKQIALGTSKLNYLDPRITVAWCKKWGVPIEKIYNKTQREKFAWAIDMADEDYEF
assayDetails: Inhibition of recombinant human TOP1 mediated DNA cleavage after 20 mins by gel electrophoresis relative to camptothecin
Design: concentration or dose not given beside the values

compound | qualifierOperator | inhibition [%]
O=C1c2ccccc2-c2c1c1ccccc1c(=O)n2C[C@@H](O)[C@H](O)[C@H](O)CO | = | 50
O=C1c2ccccc2-c2c1c1ccccc1c(=O)n2C[C@@H](O)[C@@H](O)[C@H](O)CO | = | 75
O=C1c2ccccc2-c2c1c1ccccc1c(=O)n2C[C@H](O)[C@@H](O)[C@@H](O)[C@H](O)CO | = | 20
O=C1c2ccccc2-c2c1c1ccccc1c(=O)n2CC(O)CO (racemic) | = | 50
O=C1c2ccccc2-c2c1c1ccccc1c(=O)n2C[C@H](O)[C@@H](O)[C@H](O)[C@H](O)CO | = | 50
COc1cc2c3c(n(CCCn4ccnc4)c(=O)c2cc1OC)-c1cc2c(cc1C3=O)OCO2 [INDIMITECAN] | > | 95
C[C@@H](O)Cn1c2c(c3ccccc3c1=O)C(=O)c1ccccc1-2 | = | 75
O=C1c2ccccc2-c2c1c1ccccc1c(=O)n2C[C@H](O)[C@@H](O)[C@H](O)CO | = | 50
O=C(CO)Cn1c2c(c3ccccc3c1=O)C(=O)c1ccccc1-2 | = | 20
O=C1c2ccccc2-c2c1c1ccccc1c(=O)n2C[C@H](O)CO | = | 75
NCC(O)Cn1c2c(c3ccccc3c1=O)C(=O)c1ccccc1-2 (racemic) | = | 50
COc1cc2c3c(n(C[C@H](O)CO)c(=O)c2cc1OC)-c1ccccc1C3=O | = | 75
C[C@H](CO)n1c2c(c3ccccc3c1=O)C(=O)c1ccccc1-2 | = | 20
O=C1c2ccccc2-c2c1c1ccc([N+](=O)[O-])cc1c(=O)n2C[C@H](O)[C@@H](O)[C@H](O)[C@H](O)CO | > | 95
COc1cc2c3c(n(CCCNCCO)c(=O)c2cc1OC)-c1cc2c(cc1C3=O)OCO2 [LMP-744] | > | 95
CC(O)Cn1c2c(c3ccccc3c1=O)C(=O)c1ccccc1-2 (racemic) | = | 20
C[C@H](O)Cn1c2c(c3ccccc3c1=O)C(=O)c1ccccc1-2 | = | 75
COc1cc2c3c(n(CCCN4CCOCC4)c(=O)c2cc1OC)-c1cc2c(cc1C3=O)OCO2 [INDOTECAN] | > | 95
O=C1c2ccccc2-c2c1c1ccccc1c(=O)n2C[C@@H](O)[C@@H](O)[C@H](O)[C@H](O)CO | = | 20
O=C1c2ccccc2-c2c1c1ccccc1c(=O)n2C[C@@H](O)CO | = | 50
CC(CO)n1c2c(c3ccccc3c1=O)C(=O)c1ccccc1-2 (racemic) | = | 20
C[C@@H](CO)n1c2c(c3ccccc3c1=O)C(=O)c1ccccc1-2 | = | 50
O=C1c2ccccc2-c2c1c1ccccc1c(=O)n2C[C@H](O)[C@H](O)[C@H](O)CO | = | 0
O=C1c2ccccc2-c2c1c1ccc([N+](=O)[O-])cc1c(=O)n2C[C@H](O)CO | > | 95

###

System: MCF7
assayDetails: Antiproliferative activity against human MCF7 cells by SRB assay
Type: functional

molecule | units | qualifierOperator | GI50
COc1cc2c3c(n(CCCN4CCOCC4)c(=O)c2cc1OC)-c1cc2c(cc1C3=O)OCO2 [INDOTECAN] | nM | = | 370
O=C1c2ccccc2-c2c1c1ccc([N+](=O)[O-])cc1c(=O)n2C[C@H](O)CO | nM | = | 16
COc1cc2c3c(n(C)c(=O)c2cc1OC)-c1cc2c(cc1C3=O)OCO2 | nM | = | 1580
O=C1c2ccccc2-c2c1c1ccc([N+](=O)[O-])cc1c(=O)n2C[C@H](O)[C@@H](O)[C@H](O)[C@H](O)CO | nM | = | 880
COc1cc2c3c(n(CCCNCCO)c(=O)c2cc1OC)-c1cc2c(cc1C3=O)OCO2 [LMP-744] | nM | < | 10
O=C1c2ccccc2-c2c1c1ccccc1c(=O)n2C[C@H](O)[C@H](O)[C@H](O)[C@H](O)CO | nM | = | 1780
C[C@@H](O)Cn1c2c(c3ccccc3c1=O)C(=O)c1ccccc1-2 | nM | = | 3230
O=C1c2ccccc2-c2c1c1ccccc1c(=O)n2C[C@@H](O)[C@H](O)[C@H](O)CO | nM | = | 4570
CC(O)Cn1c2c(c3ccccc3c1=O)C(=O)c1ccccc1-2 (racemic) | nM | = | 3800

###

Tested on: HOP-62
assayDetails: Antiproliferative activity against human HOP62 cells by SRB assay
Format: functional

compound | GI50 [µM]
CC(CO)n1c2c(c3ccccc3c1=O)C(=O)c1ccccc1-2 (racemic) | 17.6
O=C1c2ccccc2-c2c1c1ccccc1c(=O)n2C[C@@H](O)CO | 3.79
C[C@@H](O)Cn1c2c(c3ccccc3c1=O)C(=O)c1ccccc1-2 | 3.39
O=C1c2ccccc2-c2c1c1ccccc1c(=O)n2C[C@@H](O)[C@H](O)[C@H](O)CO | 8.71
NCC(O)Cn1c2c(c3ccccc3c1=O)C(=O)c1ccccc1-2 (racemic) | 0.276
O=C1c2ccccc2-c2c1c1ccccc1c(=O)n2C[C@H](O)[C@H](O)[C@H](O)CO | 2.95
COc1cc2c3c(n(C[C@H](O)CO)c(=O)c2cc1OC)-c1ccccc1C3=O | 0.336
O=C1c2ccccc2-c2c1c1ccc([N+](=O)[O-])cc1c(=O)n2C[C@H](O)[C@@H](O)[C@H](O)[C@H](O)CO | 7.35
O=C1c2ccccc2-c2c1c1ccc([N+](=O)[O-])cc1c(=O)n2C[C@H](O)CO | 0.089
O=C1c2ccccc2-c2c1c1ccccc1c(=O)n2C[C@@H](O)[C@@H](O)[C@H](O)CO | 6.46
